Entries annotated with measured differential viability (reversal)
test: reversal of MRP1-mediated doxorubicin resistance, pilot screen, H69AR cells, doxorubicin co-treatment (AID 601); settings: H69AR cells + 2 uM doxorubicin, CellTiter-Glo, 72 h; at 10 µM; stronger effect = higher value
Give the value, in units of %, as a plain number.

molecule	differential viability (reversal) / %
CN(C)c1ccc(-c2nn3c(-c4ccc(Cl)cc4Cl)nnc3s2)cc1	-42.6
Cc1onc(-c2ccccc2Cl)c1C(=O)Nc1cccnc1	1.41
CCc1cc(=O)oc2cc(OC(C)=O)cc(OC(C)=O)c12	-9.96

**Query** What does the data say about its differential viability (reversal)? Entry: C[C@@H]1C[C@H]2[C@@H]3C[C@H](F)C4=CC(=O)C=C[C@]4(C)[C@@]3(F)[C@@H](O)C[C@]2(C)[C@@]1(O)C(=O)CO
**Result** -3.78

**Query** What does the data say about its differential viability (reversal)? Entry: Cc1oc(-c2ccccc2F)nc1CS(=O)(=O)CC(=O)NCCCN1CCc2ccccc2C1
**Result** -9.14

These measurements were taken from PubChem BioAssay.
